Sourced from PubChem BioAssay

- assay-summary: optical density shifts of acrAB sulA E. coli – strain DRC41, OD650, 48 h, E. coli filamentation inducer project, primary screen (AID 1152);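 further: E. coli MC1000 strain DRC41 lacking acrAB efflux pump and sulA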
- particulars: higher = more signal, called active from +8 up or from −8 down
Calls of active or inactive are those of the source.
z-score values, listed per item
metric: z-score

molecule=C#CCN1[C@@H](Cc2ccccc2)C(=O)O[C@H](Cc2ccccc2)[C@@H]1/C=C/C1CC1 metric=z-score experimental_value="0.827 (inactive)"
molecule=CN(C)CCCNC(=O)[C@@H]1c2ccccc2C(=O)N(Cc2ccccc2C(F)(F)F)[C@H]1c1ccc(CO)cc1 metric=z-score experimental_value="1.77 (inactive)"
molecule=COCCOC(=O)N1C(=O)[C@@]2(c3cc(C#CCC(C(=O)OC)C(=O)OC)ccc31)[C@H](C(N)=O)[C@H]1C(=O)O[C@H](c3ccccc3)[C@H](c3ccccc3)N1[C@@H]2c1ccc(O)cc1 metric=z-score experimental_value="-0.247 (inactive)"
molecule=COC(=O)[C@@]1(Cc2ccccc2)[C@H]2c3cc(C(=O)N(C)C)n(Cc4ccc(C(F)(F)F)nc4)c3C[C@H]2CN1C(=O)c1ccccc1 metric=z-score experimental_value="-1.64 (inactive)"
molecule=CCCC=C(CCC)[C@@H](NC(=O)OCC(C)C)c1ccc(C(=O)OC)cc1 metric=z-score experimental_value="-0.531 (inactive)"
molecule="COc1ccc(C(O)C2C=CC3C(=O)N(C)C(=O)C3N2N(c2ccccc2)c2ccccc2)cc1 (stereo unspecified)" metric=z-score experimental_value="-1.3 (inactive)"
molecule=CO[C@H]1O[C@H](CO)[C@@H](OC(=O)Nc2ccccc2)[C@H](OC(=O)Nc2ccccc2)[C@H]1OC(=O)Nc1ccccc1 metric=z-score experimental_value="0.492 (inactive)"
molecule=[N-]=[N+]=Nc1ccccc1C[C@]1(C(=O)N2CCOCC2)N=C(c2ccc(OCCCO)cc2)O[C@H]1c1ccccc1N=[N+]=[N-] metric=z-score experimental_value="1.76 (inactive)"
molecule=COc1ccc([Si](C)(C)[C@@H]2[C@@H](CC(=O)N(CCO)Cc3ccccc3)O[C@]3(C(=O)N(Cc4ccc(N5C(=O)c6cccc7cccc5c67)cc4)c4ccccc43)[C@H]2C)cc1 metric=z-score experimental_value="-0.414 (inactive)"
molecule=C=CCN1Cc2ccccc2[C@H]2OC(c3ccc(OCCCO)cc3)=N[C@@]2(CCS(=O)(=O)c2ccccc2)C1=O metric=z-score experimental_value="-0.028 (inactive)"
molecule=Cc1ccc(N2C(=O)c3ccccc3[C@](C)(C(=O)NCCCN(C)C)[C@@H]2c2ccc(CO)cc2)nc1 metric=z-score experimental_value="-0.666 (inactive)"
molecule=NC(=O)NCC#Cc1ccc2c(c1)[C@]1(C(=O)N2)[C@H](c2ccc(OCCO)cc2)N2[C@H](c3ccccc3)[C@H](c3ccccc3)OC(=O)[C@H]2[C@@H]1C(=O)O metric=z-score experimental_value="0.53 (inactive)"
molecule=CCOC(=O)C[C@H]1[C@H](OC(=O)c2ccccc2-c2ccccc2)[C@@H](NC(=O)c2ccc3ccccc3c2)c2cc(OCCCO)ccc2N1C(=O)Cc1ccc(OC)cc1 metric=z-score experimental_value="-0.878 (inactive)"
molecule=CCOC(=O)C1=C[C@@H](C(C)(C)C)N(S(=O)(=O)c2ccc(C)cc2)[C@H]1c1ccc(C#N)cc1 metric=z-score experimental_value="-1.02 (inactive)"
molecule=Cc1ccc(F)cc1S(=O)(=O)N[C@H]1CCN(Cc2ccc(OC(C)C)cc2)C1 metric=z-score experimental_value="-4.19 (inactive)"
molecule=COC(=O)c1cccc([C@H]2OC(=CC(=O)OC(C)C)C[C@@H](c3cccc(C(=O)OC)c3)O2)c1 metric=z-score experimental_value="-0.576 (inactive)"
molecule=CCOC(=O)C1=CC[C@@H](c2ccc(OC)cc2)N(S(=O)(=O)c2ccc(C)cc2)[C@H]1CC metric=z-score experimental_value="0.938 (inactive)"
molecule="CC(C)=CCCC(C)=CC(O)C1C=CC2C(=O)NC(=O)C2N1Nc1ccc(Cl)cc1Cl (stereo unspecified)" metric=z-score experimental_value="-2.85 (inactive)"
molecule=O=C1[C@H]2C=C(I)[C@H](C[C@@H]2OCCCCCCO)[C@@]12CO2 metric=z-score experimental_value="-1.02 (inactive)"
molecule="O=C1NC(=O)C2C1C=CC(C(O)c1ccc(B(O)O)cc1)N2Nc1ccc(Cl)cc1Cl (stereo unspecified)" metric=z-score experimental_value="-2.48 (inactive)"
molecule="CC(C)(C)N1CC=CC23O[C@@H]4/C=C\\CCCOC(=O)C4[C@H]2C(=O)N(CCCCCO)[C@@H]3C1=O (stereo partly specified)" metric=z-score experimental_value="-0.81 (inactive)"
molecule=C=C(CCCC)/C(=C/C[C@H](OC(=O)c1ccncc1)c1ccccc1OCCO)c1cc(C(=O)OC)ccc1OC metric=z-score experimental_value="0.0839 (inactive)"
molecule="CC=CC(O)C1C=CC2C(=O)NC(=O)C2N1Nc1ccc(Cl)cc1Cl (stereo unspecified)" metric=z-score experimental_value="-1.56 (inactive)"
molecule=C=CCNC(=O)[C@H]1[C@@H]2C(=O)O[C@@H](c3ccccc3)[C@@H](c3ccccc3)N2[C@@H](c2ccc(OCCO)cc2)[C@]12C(=O)Nc1ccc(C#CC3(O)CCCCCC3)cc12 metric=z-score experimental_value="0.803 (inactive)"
molecule="OCCCC1=CC(c2ccc(CN3CCCC3)cc2)N(Cc2cccc(OC(F)(F)F)c2)CC1 (stereo unspecified)" metric=z-score experimental_value="-2.64 (inactive)"
molecule=CC(C)N1C(=O)c2ccccc2[C@](C)(C(=O)NCC(F)(F)F)[C@@H]1c1ccc(CO)cc1 metric=z-score experimental_value="0.481 (inactive)"
molecule=Cc1ccc(S[C@]2(C(=O)NC3CC3)CC(=O)N(C(C)C)[C@@H]2c2ccc(CO)cc2I)cc1 metric=z-score experimental_value="0.839 (inactive)"
molecule=CN(C)CCCC[C@@H]1NC(=O)[C@@H]2C[C@H](C(=O)NCCCCCCNC(=O)CS)[C@H](c3ccc(O)cc3)N2C1=O metric=z-score experimental_value="-1.05 (inactive)"
molecule="CC(C)C[C@@H]1NC(=O)[C@@]23C(=O)N[C@@H](Cc4ccccc4)C2[C@H](C)[C@@]2(C)O[C@H]2C3/C=C/C/C=C\\CNC(=O)CNC1=O (stereo partly specified)" metric=z-score experimental_value="-0.815 (inactive)"
molecule="NC(=O)N1C(=O)C2C(C1=O)C1C=C(CCCO)C2C(c2ccc(CN3CCCC3)cc2)N1Cc1sc2ccccc2c1Cl (stereo unspecified)" metric=z-score experimental_value="-0.711 (inactive)"
molecule=COCC(=C=CC[C@H](O)c1ccccc1OCCO)C[C@H](O)COCc1ccccc1 metric=z-score experimental_value="-0.186 (inactive)"

* * *

- assay-summary: JC-1 mitochondrial potential readout, lung cancer cells – cell-based, A549, JC-1 fluorescence, basal, 24 h, 100 nL, profiling panel (AID 1138);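 further: A549 lung adenocarcinoma cells under basal conditions with no added stimulus; test concentration not given here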
- particulars: higher = more signal
If the reported z-score equals or exceeds 0.5, assign yes (1). If not, assign no (0).

compound=COC(=O)[C@@]1(Cc2ccc(OC)cc2)[C@H]2c3cc(C(=O)N4CCCC4)n(Cc4c(CO)[nH]cc(C)c4=O)c3C[C@H]2CN1C(=O)c1ccccc1 group_label="yes (1)"
compound="OCCCC1=CC(c2ccc(CN3CCCC3)cc2)N(Cc2cccc(OC(F)(F)F)c2)CC1 (configuration not stated)" group_label="yes (1)"
compound=CO[C@H]1O[C@H](CO)[C@@H](OC(=O)Nc2ccc3c(c2)OCO3)[C@H](OC(=O)Nc2ccccc2-c2ccccc2)[C@H]1OC(=O)Nc1ccccc1-c1ccccc1 group_label="no (0)"
compound=COc1ccc([Si](C)(C)[C@@H]2[C@@H](CC(=O)N3CCC[C@H]3CO)O[C@]3(C(=O)N(Cc4cccc(N5CCCCC5=O)c4)c4ccccc43)[C@H]2C)cc1 group_label="no (0)"
compound=CC(C)NC(=O)[C@@H]1c2ccccc2C(=O)N(Cc2ccc(OC(F)(F)F)cc2)[C@H]1c1ccc(CO)cc1 group_label="no (0)"
compound="CC1CC/C=C\\[C@H]2OC34C=CCN(C(C)(C)C)C(=O)[C@H]3N(CCCO)C(=O)[C@@H]4C2C(=O)O1 (some centres not stated)" group_label="no (0)"
compound=CN(C)C(=O)[C@]1(Cc2ccccc2)N=C(c2ccc(OCCCO)cc2)O[C@@H]1c1ccccc1CN=[N+]=[N-] group_label="yes (1)"

* * *

- target: Homeobox protein Hox-A13 (Mus musculus) (UniProt Q62424)
- Sequence (Q62424 whole entry, looked up): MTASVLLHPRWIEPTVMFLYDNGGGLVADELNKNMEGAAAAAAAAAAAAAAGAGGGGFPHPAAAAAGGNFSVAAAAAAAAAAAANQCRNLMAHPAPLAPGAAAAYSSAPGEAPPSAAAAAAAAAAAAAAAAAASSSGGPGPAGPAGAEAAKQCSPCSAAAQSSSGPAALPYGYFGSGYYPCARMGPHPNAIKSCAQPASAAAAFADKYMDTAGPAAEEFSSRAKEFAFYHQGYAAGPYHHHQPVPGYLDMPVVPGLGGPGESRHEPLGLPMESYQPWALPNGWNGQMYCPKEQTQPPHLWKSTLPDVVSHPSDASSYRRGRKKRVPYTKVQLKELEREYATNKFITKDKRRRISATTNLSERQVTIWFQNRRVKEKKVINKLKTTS
- assay-summary: disruptors of Hoxa13 oligonucleotide interaction – biochemical, fluorescence polarization, labeled oligonucleotide, primary screen (AID 1185)
- particulars: Hoxa13:DNA binding, 15 min, higher = more signal, called active from +8 up or from −8 down
metric: z-score

molecule=C[N+](C)(C)CCCC[C@@H]1NC(=O)[C@H]2C[C@@H](C(=O)NCCCCCNC(=O)CS)[C@@H](c3cccc(OCCO)c3)N2C1=O target="Homeobox protein Hox-A13 (Mus musculus) (UniProt Q62424)" metric=z-score experimental_value=-2.8
molecule="CC(C)(C)N1CC=CC23O[C@@H]4C=CCOC(=O)[C@@H]4[C@H]2C(=O)N(CCO)[C@@H]3C1=O (stereo not given in full)" target="Homeobox protein Hox-A13 (Mus musculus) (UniProt Q62424)" metric=z-score experimental_value=-3.33
molecule="O=C1C2C=CC(C(O)c3c(F)cccc3Cl)N(Nc3ccc([N+](=O)[O-])cc3)C2C(=O)N1c1ccccc1 (stereo not given)" target="Homeobox protein Hox-A13 (Mus musculus) (UniProt Q62424)" metric=z-score experimental_value=-3.05
molecule="NC(=O)N1C(=O)C2C(C1=O)C1C=C(CCCO)C2C(c2ccc(CN3CCCC3)cc2)N1Cc1sc2ccccc2c1Cl (stereo not given)" target="Homeobox protein Hox-A13 (Mus musculus) (UniProt Q62424)" metric=z-score experimental_value=-4.57
molecule="CC=CC(O)C1C=CC2C(=O)NC(=O)C2N1Nc1ccc(Cl)cc1Cl (stereo not given)" target="Homeobox protein Hox-A13 (Mus musculus) (UniProt Q62424)" metric=z-score experimental_value=-3.78
molecule=O=C1C[C@]2(c3ccc([N+](=O)[O-])cc3)C(=O)N(C3CC3)c3cc(CO)ccc3[C@H]2N1C1CCCCC1 target="Homeobox protein Hox-A13 (Mus musculus) (UniProt Q62424)" metric=z-score experimental_value=-1.16
molecule="CCCCCC1=C2CNC(CC(C)C)(C(=O)OC)C=C2C(C)C1=O (stereo not given)" target="Homeobox protein Hox-A13 (Mus musculus) (UniProt Q62424)" metric=z-score experimental_value=-8.08
molecule=CN(C)CCCC[C@@H]1NC(=O)[C@@H]2C[C@H](C(=O)NCCCCCCNC(=O)CS)[C@H](c3ccc(O)cc3)N2C1=O target="Homeobox protein Hox-A13 (Mus musculus) (UniProt Q62424)" metric=z-score experimental_value=-1.31
molecule=C=CCOC(=O)[C@@H]1[C@H]2C(=O)O[C@H](c3ccccc3)[C@H](c3ccccc3)N2[C@H](c2ccc(OCCOC(=O)[C@H]3C[C@H]4C(=O)N[C@@H](CCCCN(C)C)C(=O)N4[C@H]3c3ccc(O)cc3)cc2)[C@@]12C(=O)Nc1ccc(I)cc12 target="Homeobox protein Hox-A13 (Mus musculus) (UniProt Q62424)" metric=z-score experimental_value=5.3
molecule=CN(C)CCCNC(=O)[C@@H]1c2ccccc2C(=O)N(Cc2ccccc2C(F)(F)F)[C@H]1c1ccc(CO)cc1 target="Homeobox protein Hox-A13 (Mus musculus) (UniProt Q62424)" metric=z-score experimental_value=-2.62
molecule="COc1ccc(C(O)C2C=CC3C(=O)NC(=O)C3N2Nc2ccc(Cl)cc2Cl)c2ccccc12 (stereo not given)" target="Homeobox protein Hox-A13 (Mus musculus) (UniProt Q62424)" metric=z-score experimental_value=-2.99
molecule=COc1ccc([Si](C)(C)[C@@H]2[C@@H](CC(=O)N(CCO)Cc3ccccc3)O[C@]3(C(=O)N(Cc4ccc(I)cc4)c4ccccc43)[C@H]2C)cc1 target="Homeobox protein Hox-A13 (Mus musculus) (UniProt Q62424)" metric=z-score experimental_value=-2.17
molecule="CC1CC/C=C\\[C@H]2OC34C=CCN(c5ccc6ccccc6c5)C(=O)[C@H]3N(C(C)CO)C(=O)[C@@H]4C2C(=O)O1 (stereo not given in full)" target="Homeobox protein Hox-A13 (Mus musculus) (UniProt Q62424)" metric=z-score experimental_value=-4.97
molecule="N#Cc1ccc(NN2C(C(O)C3CC=CCC3)C=CC3C(=O)N(c4ccccc4)C(=O)C32)cc1 (stereo not given)" target="Homeobox protein Hox-A13 (Mus musculus) (UniProt Q62424)" metric=z-score experimental_value=-2.69
molecule=CCOC(=O)C1=CC[C@@H](c2ccc(OC)cc2)N(S(=O)(=O)c2ccc(C)cc2)[C@H]1CC target="Homeobox protein Hox-A13 (Mus musculus) (UniProt Q62424)" metric=z-score experimental_value=-0.507
